# Test system: 454973-116-R2-J3-PDC spheroids, percent test/control viability;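 note: spheroids exposed to compounds for 7 days before readout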
# experimental-details: Anticancer human tumor 454973-116-R2-J3-PDC patient-derived pancreatic carcinoma cell line growth inhibition [CLK]
# conditions: second compound 1 µM; first compound 0.1 µM; stronger effect = lower value; spheroids with HUVEC and MSC
# From the text: A high-throughput screen of multi-cell type tumor spheroids was designed to identify active combinations of […] and targeted small molecules. Complex spheroids include a stromal component modeled by human endothelial cells (HUVEC) and fibroblasts modeled by human mesenchymal stem cells (MSCs). […] Compounds. […] If the clinical Cmax for an agent had not been determined, the highest concentration tested was 10 microM. […]

| compound | system-name | viability, T/C [%] |
| --- | --- | --- |
| COC1C=CCC(C)C(C)S(=O)(=O)NC(=O)c2ccc3c(c2)N(CC2CCC21)CC1(CCCc2cc(Cl)ccc21)CO3 (stereo unspecified) + CN1CCN(c2cc(C(=O)Nc3cc4cc(-c5cnn(C)c5)ccc4cn3)ccn2)CC1 | 454973-116-R2-J3-PDC spheroids, percent test/control viability | 0.13 |
| CCN1CCN(Cc2ccc(Nc3ncc(F)c(-c4cc(F)c5nc(C)n(C(C)C)c5c4)n3)nc2)CC1 + CNC(=O)c1ccc(Nc2nc(OC3CCCC3)c3c(-c4ccc5nc(C)oc5c4)c[nH]c3n2)c(OC)c1 | 454973-116-R2-J3-PDC spheroids, percent test/control viability | 43 |
| COC1C=CCC(C)C(C)S(=O)(=O)NC(=O)c2ccc3c(c2)N(CC2CCC21)CC1(CCCc2cc(Cl)ccc21)CO3 (stereo unspecified) + CNC(=O)c1ccc(Nc2nc(OC3CCCC3)c3c(-c4ccc5nc(C)oc5c4)c[nH]c3n2)c(OC)c1 | 454973-116-R2-J3-PDC spheroids, percent test/control viability | 23.3 |
| COc1ccc([C@@H](O)c2cc(-c3ncnc4cc(N5CCOCC5)ccc34)c(F)cc2Cl)nn1 + CNC(=O)c1ccc(Nc2nc(OC3CCCC3)c3c(-c4ccc5nc(C)oc5c4)c[nH]c3n2)c(OC)c1 | 454973-116-R2-J3-PDC spheroids, percent test/control viability | 28 |
| COc1cccc2c1C(=O)c1c(O)c3c(c(O)c1C2=O)CC(O)(C(=O)CO)CC3OC1CC(N)C(O)C(C)O1 (stereo unspecified) + CNC(=O)c1ccc(Nc2nc(OC3CCCC3)c3c(-c4ccc5nc(C)oc5c4)c[nH]c3n2)c(OC)c1 | 454973-116-R2-J3-PDC spheroids, percent test/control viability | 18.5 |
| CC(=O)O[C@H]1C(=O)[C@@]2(C)[C@H]([C@H](OC(=O)c3ccccc3)[C@]3(O)C[C@H](OC(=O)[C@H](O)[C@@H](NC(=O)c4ccccc4)c4ccccc4)C(C)=C1C3(C)C)[C@]1(OC(C)=O)CO[C@@H]1C[C@@H]2O + CNC(=O)c1ccc(Nc2nc(OC3CCCC3)c3c(-c4ccc5nc(C)oc5c4)c[nH]c3n2)c(OC)c1 | 454973-116-R2-J3-PDC spheroids, percent test/control viability | 50.2 |
| CC(CO)NC(=O)c1cc(-c2ccc(Cl)cc2)nn(-c2cnn(C)c2)c1=O (stereo unspecified) + CN1CCN(c2cc(C(=O)Nc3cc4cc(-c5cnn(C)c5)ccc4cn3)ccn2)CC1 | 454973-116-R2-J3-PDC spheroids, percent test/control viability | 0.93 |
| Cn1ncnc1[C@H]1c2n[nH]c(=O)c3cc(F)cc(c23)N[C@@H]1c1ccc(F)cc1 + CN1CCN(c2cc(C(=O)Nc3cc4cc(-c5cnn(C)c5)ccc4cn3)ccn2)CC1 | 454973-116-R2-J3-PDC spheroids, percent test/control viability | 0.1 |
| O=C(c1cc(Cc2n[nH]c(=O)c3ccccc23)ccc1F)N1CCN(C(=O)C2CC2)CC1 + CNC(=O)c1ccc(Nc2nc(OC3CCCC3)c3c(-c4ccc5nc(C)oc5c4)c[nH]c3n2)c(OC)c1 | 454973-116-R2-J3-PDC spheroids, percent test/control viability | 33.9 |
| CC(=O)O[C@H]1C(=O)[C@@]2(C)[C@H]([C@H](OC(=O)c3ccccc3)[C@]3(O)C[C@H](OC(=O)[C@H](O)[C@@H](NC(=O)c4ccccc4)c4ccccc4)C(C)=C1C3(C)C)[C@]1(OC(C)=O)CO[C@@H]1C[C@@H]2O + CN1CCN(c2cc(C(=O)Nc3cc4cc(-c5cnn(C)c5)ccc4cn3)ccn2)CC1 | 454973-116-R2-J3-PDC spheroids, percent test/control viability | 0.1 |
| O=c1[nH]cc(F)c(=O)[nH]1 + CN1CCN(c2cc(C(=O)Nc3cc4cc(-c5cnn(C)c5)ccc4cn3)ccn2)CC1 | 454973-116-R2-J3-PDC spheroids, percent test/control viability | 0.11 |
| CCc1c2c(nc3ccc(O)cc13)-c1cc3c(c(=O)n1C2)COC(=O)[C@]3(O)CC + CN1CCN(c2cc(C(=O)Nc3cc4cc(-c5cnn(C)c5)ccc4cn3)ccn2)CC1 | 454973-116-R2-J3-PDC spheroids, percent test/control viability | 0.05 |
| CC1COCCN1c1cc(C2(S(C)(=N)=O)CC2)nc(-c2ccnc3[nH]ccc23)n1 (stereo unspecified) + CN1CCN(c2cc(C(=O)Nc3cc4cc(-c5cnn(C)c5)ccc4cn3)ccn2)CC1 | 454973-116-R2-J3-PDC spheroids, percent test/control viability | 0.13 |
| O=C(c1cc(Cc2n[nH]c(=O)c3ccccc23)ccc1F)N1CCN(C(=O)C2CC2)CC1 + CN1CCN(c2cc(C(=O)Nc3cc4cc(-c5cnn(C)c5)ccc4cn3)ccn2)CC1 | 454973-116-R2-J3-PDC spheroids, percent test/control viability | 0.14 |
| COc1c(OCCCN2CCOCC2)ccc2c3n(c(=NC(=O)c4cnc(N)nc4)nc12)CCN3 + CN1CCN(c2cc(C(=O)Nc3cc4cc(-c5cnn(C)c5)ccc4cn3)ccn2)CC1 | 454973-116-R2-J3-PDC spheroids, percent test/control viability | 0.06 |
| Nc1ccccc1NC(=O)c1ccc(CNC(=O)OCc2cccnc2)cc1 + CN1CCN(c2cc(C(=O)Nc3cc4cc(-c5cnn(C)c5)ccc4cn3)ccn2)CC1 | 454973-116-R2-J3-PDC spheroids, percent test/control viability | 0.84 |
| CC1COCCN1c1cc(C2(S(C)(=N)=O)CC2)nc(-c2ccnc3[nH]ccc23)n1 (stereo unspecified) + CNC(=O)c1ccc(Nc2nc(OC3CCCC3)c3c(-c4ccc5nc(C)oc5c4)c[nH]c3n2)c(OC)c1 | 454973-116-R2-J3-PDC spheroids, percent test/control viability | 30.9 |
| C=C(F)C(=O)N1CCN(c2nc(OCC3CCCN3C)nc3c2CCN(c2cccc4cccc(Cl)c24)C3)CC1CC#N (stereo unspecified) + CN1CCN(c2cc(C(=O)Nc3cc4cc(-c5cnn(C)c5)ccc4cn3)ccn2)CC1 | 454973-116-R2-J3-PDC spheroids, percent test/control viability | 0.21 |
| CC(Nc1ccc2c(c1)OCCn1cc(N3C(=O)OCC3C(F)F)nc1-2)C(N)=O (stereo unspecified) + CNC(=O)c1ccc(Nc2nc(OC3CCCC3)c3c(-c4ccc5nc(C)oc5c4)c[nH]c3n2)c(OC)c1 | 454973-116-R2-J3-PDC spheroids, percent test/control viability | 26.9 |
| Cn1ncnc1[C@H]1c2n[nH]c(=O)c3cc(F)cc(c23)N[C@@H]1c1ccc(F)cc1 + CNC(=O)c1ccc(Nc2nc(OC3CCCC3)c3c(-c4ccc5nc(C)oc5c4)c[nH]c3n2)c(OC)c1 | 454973-116-R2-J3-PDC spheroids, percent test/control viability | 23.5 |
| Nc1ccn(C2OC(CO)C(O)C2(F)F)c(=O)n1 (stereo unspecified) + CN1CCN(c2cc(C(=O)Nc3cc4cc(-c5cnn(C)c5)ccc4cn3)ccn2)CC1 | 454973-116-R2-J3-PDC spheroids, percent test/control viability | 0.1 |
